Test system: Thanatephorus cucumeris (Rhizoctonia solani)
Assay: In vivo test b) Rice Sheath Blight (RSB), 24 hour preapplication protectant, % control
Settings: 200 ppm, protectant, read-out: % Control RSB
METRIC_NAME: pest or weed control at 200 ppm (%)
Write it as a number; the unit % goes unstated.

Some solved cases for reference:
*Q* # get_value(readout='pest or weed control at 200 ppm', item= O=C1CCC(c2ccc(Cl)cc2)=NN1CC#CC(F)F )
*A* 0

*Q* Param item: CC=CCN1N=C(c2ccc(Cl)cc2)CCC1=O
*A* 0

*Q* Try CCCCN1N=C(c2ccc(Cl)cc2)CCC1=O next.
*A* 0

Others:
*Q* If you can, please state the reported pest or weed control at 200 ppm value of CC#CCN1N=C(c2ccc(OC)c(F)c2)CCC1=O .
*A* 0

*Q* Follow-up item: CCC#CCN1N=C2c3ccc(Cl)cc3C(C)C2CC1=O (stereo not drawn)
*A* 90

---

System: fungal inoculum
Test: organism not typed
Format: cell-based
Details: read-out: % growth inhibition
A collection of compounds and their measured inhibition at 50 ppm
Report the value in % with no unit label.

*Q* Query: inhibition at 50 ppm; subject: C#CC=CCN1N=C(c2ccc(Cl)cc2)CCC1=O
*A* 75.8

*Q* Same question for CC(F)C#CCN1N=C(c2ccc(Cl)cc2)CCC1=O (stereo not drawn) please.
*A* 100

*Q* Please give the result for COC(C)C#CCN1N=C(c2ccc(Cl)cc2)CCC1=O (stereo not drawn) too.
*A* 100

---

Test system: Thanatephorus cucumeris (Rhizoctonia solani)
Test: In vivo test b) Rice Sheath Blight (RSB), 24 hour preapplication protectant, % control
Settings: 200 ppm, protectant, read-out: % Control RSB
Procedure: Compounds were tested at 200 ppm as a twenty-four hour preapplication protectant test prior to inoculation. b) Rice Sheath Blight (RSB) Thanatephorus cucumeris (Rhizoctonia solani) mycelia were grown for six days in potato dextrose broth in shake culture. Drained mycelial mats were blended with an approximately equal weight of rice flour and five parts water. […] Following two more days at 25° C. and 70-90% relative humidity the plants were evaluated for percent disease control compared to check plants.
Criterion: pest or weed control at 200 ppm meeting or surpassing 50%. Met: fulfilled. Not met: not fulfilled.

Examples from the recorded data:
*Q* Is it the case that C/C=C/C#CCN1N=C(c2ccc(Cl)cc2)CCC1=O has pest or weed control at 200 ppm reaching or exceeding 50%?
*A* not fulfilled

*Q* Same lookup for C=CC#CCn1nc(-c2ccc(Cl)c(F)c2)ccc1=O , please.
*A* not fulfilled

*Q* Same for CCC#CCn1nc(-c2ccc(F)c(Cl)c2)ccc1=O
*A* not fulfilled

*Q* Another: CCC#CCn1nc(-c2ccc(Cl)cc2)ccc1=O
*A* fulfilled

*Q* Query CC#CCN1N=C(c2ccc(OC)cc2)CCC1=O next
*A* not fulfilled

Next:
*Q* Answer whether pest or weed control at 200 ppm of C=CC#CCN1N=C(c2ccc(Cl)c(F)c2)CCC1=O is greater than or equal to 50%.
*A* not fulfilled

*Q* Now give it for CCC#CCN1N=C(c2ccc(Cl)cc2)CC=C1n1cncn1 too.
*A* not fulfilled

*Q* Okay, and CCC#CCN1N=C(c2ccc(-c3ccccc3)cc2)CCC1=O ?
*A* fulfilled

*Q* Then CCC#CCn1nc(-c2ccc(Cl)cc2)c2ccccc2c1=O ?
*A* not fulfilled

*Q* Then this compound: O=C1CCC(c2ccc(Cl)cc2)=NN1CC#Cc1ccccc1
*A* fulfilled

*Q* Likewise for C#CCN1N=C(c2ccc(Cl)cc2)CCC1=O ?
*A* not fulfilled
